B1: TRIM43 (parent)
chain: NNSWIRKNSTMVNSEDIFLLLCLK

variants of: B1; assay: protein stability index of a GFP-peptide fusion (GPS, HEK-293T) (PSI 1-6); higher = more stable; conditions: c terminus: a fixed tail appended;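 further: lentivirally expressed fusions sorted by FACS into six bins by GFP to DsRed ratio, PSI derived from sequencing read proportions per bin multiplied by bin number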
property_label: protein stability index

Check out these entries, answers already filled in.
NNSYIRKNSTMVNSEDIFLLLCLK [W4Y]
3.95
NNSWIRNNSTMVNSEDIFLLLCLK [K7N]
2.32
NNSWIRKNSTMVGSEDIFLLLCLK [N13G]
3.19
NNSWIRKNATMVNSEDIFLLLCLK [S9A]
2.99

In plain terms, NNSKIRKNSTMVNSEDIFLLLCLK [W4K] has a documented protein stability index of 2.72

In plain terms, NNSWFRKNSTMVNSEDIFLLLCLK [I5F] has a documented protein stability index of 2.91

In plain terms, NWSWIRKNSTMVNSEDIFLLLCLK [N2W] has a documented protein stability index of 2.65

In plain terms, NNSWDRKNSTMVNSEDIFLLLCLK [I5D] has a documented protein stability index of 2.61

In plain terms, NNSWIRWNSTMVNSEDIFLLLCLK [K7W] has a documented protein stability index of 2.95

In plain terms, NNSWIRKNSTMVNSEDIFLLLRLK [C22R] has a documented protein stability index of 1.91

In plain terms, NNSWIRKNSTMVNSEDCFLLLCLK [I17C] has a documented protein stability index of 3.18

In plain terms, NNSWIRKNSTMVNSEDIFDLLCLK [L19D] has a documented protein stability index of 2.01

In plain terms, NNSWIRKNSTMVNSWDIFLLLCLK [E15W] has a documented protein stability index of 2.01

In plain terms, NNSWIRPNSTMVNSEDIFLLLCLK [K7P] has a documented protein stability index of 3.02

In plain terms, NNSWIRKNSTMVNSEDIFLLLCLQ [K24Q] has a documented protein stability index of 3.08
